Data provenance: ChEMBL document CHEMBL4725282

Can you tell me remaining at 0.5 h, 1 µM for the items I'm about to list?
PROTOCOL DESCRIPTION: Stability in CD-1 mouse liver microsome assessed as parent compound remaining at 1 uM measured after 30 mins in presence of NADPH by LC-MS/MS analysis
Format: ADME
CONDITION LABEL: liver microsomes, read-out: Stabilty
Field: numeric (%). Do not append units.

QUERY: Determine from records and report remaining at 0.5 h, 1 µM for CC(=O)NC[C@@H]1OC(=O)N2c3cc(F)c(N4CC[S+]([O-])CC4)cc3OC[C@@H]12
RESULT: 100

QUERY: Look up remaining at 0.5 h, 1 µM of CC(=O)NC[C@H]1CN(c2ccc(N3CCOCC3)c(F)c2)C(=O)O1 and report it.
RESULT: 111

QUERY: # return recorded remaining at 0.5 h, 1 µM for input O=C(NC[C@@H]1OC(=O)N2c3cc(F)c(N4CCSCC4)cc3OC[C@@H]12)c1ccncc1
RESULT: 20.8

QUERY: Consider the compound O=C(NC[C@@H]1OC(=O)N2c3cc(F)c(N4CCSCC4)cc3OC[C@@H]12)C1CC1 and give its recorded remaining at 0.5 h, 1 µM.
RESULT: 15

QUERY: Tell me measured remaining at 0.5 h, 1 µM for O=C1O[C@@H](Cn2ccnn2)[C@@H]2COc3cc(N4CCSCC4)c(F)cc3N12 please.
RESULT: 21.7

QUERY: Give recorded remaining at 0.5 h, 1 µM. CC(=O)NC[C@@H]1OC(=O)N2c3cc(F)c(N4CCSCC4)cc3OC[C@@H]12
RESULT: 48.7

QUERY: Provide only the value of recorded remaining at 0.5 h, 1 µM for CC(=O)NC[C@H]1CN(c2ccc(N3CCSCC3)c(F)c2)C(=O)O1
RESULT: 54.8

QUERY: Give remaining at 0.5 h, 1 µM for the following compound: NC[C@@H]1OC(=O)N2c3cc(F)c(N4CCSCC4)cc3OC[C@@H]12
RESULT: 15.8

QUERY: Answer with the recorded remaining at 0.5 h, 1 µM of O=C(NC[C@@H]1OC(=O)N2c3cc(F)c(N4CCSCC4)cc3OC[C@@H]12)c1cnccn1 only.
RESULT: 6.85
